Quick reference for pKd among some compounds
STUDY TARGET: OccJ WT (Agrobacterium tumefaciens)
Construct: The mature PBP OccJ (256 aa without the signal peptide) expression plasmid was obtained by cloning the occJ gene lacking the first twenty residues; hexahistidine (C); made in house; host or cells: E. coli BL21
Sequence (P0A4F8 21-276): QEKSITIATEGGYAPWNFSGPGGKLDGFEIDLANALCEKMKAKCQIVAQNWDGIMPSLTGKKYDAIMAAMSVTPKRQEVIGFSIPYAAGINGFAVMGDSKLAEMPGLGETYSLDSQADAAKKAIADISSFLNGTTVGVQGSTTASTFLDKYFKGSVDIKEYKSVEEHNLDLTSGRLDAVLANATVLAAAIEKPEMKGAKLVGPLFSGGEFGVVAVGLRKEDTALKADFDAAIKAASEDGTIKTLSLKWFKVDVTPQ
EXPERIMENT DESCRIPTION: biochemical
Format: binding
pKd: −log10 of the molar value.
VALUE TYPE: pKd

INSERT INTO results (compound, result_value) VALUES
  ('NCCC[C@H](N)C(=O)O [ornithine]', 4.51),
  ('NCCCC[C@H](N)C(=O)O [L-lysine]', 5.12),
  ('N=C(N)NCCC[C@H](N)C(=O)O [L-arginine]', 5.14);
